TEST_TARGET: ACE-2 (Rattus norvegicus, UniProt Q5EGZ1)
Sequence (Q5EGZ1 18-805): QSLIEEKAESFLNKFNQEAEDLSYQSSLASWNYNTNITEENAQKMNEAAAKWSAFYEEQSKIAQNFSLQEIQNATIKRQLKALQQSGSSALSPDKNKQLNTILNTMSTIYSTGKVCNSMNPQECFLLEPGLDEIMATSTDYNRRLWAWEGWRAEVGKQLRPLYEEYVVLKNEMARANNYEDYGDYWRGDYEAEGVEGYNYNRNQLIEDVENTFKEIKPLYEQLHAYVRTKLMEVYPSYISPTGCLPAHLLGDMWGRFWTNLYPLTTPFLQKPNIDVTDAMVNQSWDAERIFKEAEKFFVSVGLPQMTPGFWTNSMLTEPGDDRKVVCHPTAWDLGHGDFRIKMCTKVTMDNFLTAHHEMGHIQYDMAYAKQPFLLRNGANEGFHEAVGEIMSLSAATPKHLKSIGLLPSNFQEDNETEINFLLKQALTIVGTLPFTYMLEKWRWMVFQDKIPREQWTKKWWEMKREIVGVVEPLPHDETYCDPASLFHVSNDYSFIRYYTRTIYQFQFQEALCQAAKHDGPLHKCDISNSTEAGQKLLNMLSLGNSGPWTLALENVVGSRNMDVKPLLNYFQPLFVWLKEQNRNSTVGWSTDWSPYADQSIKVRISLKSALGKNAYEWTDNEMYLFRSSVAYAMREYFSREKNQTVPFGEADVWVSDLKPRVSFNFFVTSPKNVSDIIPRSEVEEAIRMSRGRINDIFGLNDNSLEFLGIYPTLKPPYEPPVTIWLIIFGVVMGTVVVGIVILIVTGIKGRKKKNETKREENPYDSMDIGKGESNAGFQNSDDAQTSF
TEST_PROTOCOL: ACE-2 Competitive Substrate Assay, rat ACE-2
Format: biochemical
DETAILS: Ki class; compounds tested in 5% DMSO, 12 concentrations
pKi: −log10 of the molar value.
Documented pKi across a set of compounds
EXPERIMENTAL_ENDPOINT: pKi

COMPOUND: O=C(O)[C@H](CC#Cc1ccccc1)N[C@@H](CCc1ccccc1)C(=O)O [DS]
OBS_VALUE: 6.30 to 7.00
--
COMPOUND: CC(C)CC(N[C@@H](Cc1cn(-c2ccc([N+](=O)[O-])cc2[N+](=O)[O-])cn1)C(=O)O)C(=O)O (stereo in doubt) [EG]
OBS_VALUE: < 6.30
--
COMPOUND: O=C(O)[C@H](CC#Cc1ccccn1)N[C@H](CCc1ccccc1)C(=O)O [EB]
OBS_VALUE: < 6.30
--
COMPOUND: CC(C)CC(N[C@@H](Cc1cn(Cc2ccccc2)cn1)C(=O)O)C(=O)O (single isomer, unassigned) [DL]
OBS_VALUE: < 6.30
--
COMPOUND: CC(C)CC(N[C@@H](Cc1cn(Cc2ccc(Cl)cc2)cn1)C(=O)O)C(=O)O (some centres unmarked) [EC]
OBS_VALUE: < 6.30
--
COMPOUND: CC(C)CC(N[C@@H](Cc1c[nH]cn1)C(=O)NCC(=O)O)C(=O)O (some centres unmarked) [FD]
OBS_VALUE: < 6.30
--
COMPOUND: CCCC(NC(Cc1c[nH]cn1)C(=O)O)C(=O)O (single isomer, unassigned) [DJ]
OBS_VALUE: 6.30 to 7.00
--
COMPOUND: CCCCC(N[C@@H](Cc1c[nH]cn1)C(=O)O)C(=O)O (single isomer, unassigned) [ED]
OBS_VALUE: 6.30 to 7.00
--
COMPOUND: CC(C)CC(N[C@@H](Cc1cncn1COCc1ccccc1)C(N)=O)C(=O)O (single isomer, unassigned) [FC]
OBS_VALUE: < 6.30
--
COMPOUND: CC(C)CC(N[C@@H](Cc1c[nH]cn1)C(=O)Nc1ccc([N+](=O)[O-])cc1)C(=O)O (single isomer, unassigned) [EX]
OBS_VALUE: < 6.30
--
COMPOUND: CCCCC(N[C@@H](Cc1c[nH]cn1)C(=O)O)C(=O)O (single isomer, unassigned) [EF]
OBS_VALUE: < 6.30

----------
TEST_TARGET: ACE-2 (Homo sapiens, UniProt Q9BYF1)
Construct: a stop codon inserted after the serine immediately preceding the transmembrane domain; made in house; host or cells: CHO K1 cells (transient transfection, purified from conditioned medium)
Sequence (Q9BYF1 18-740 limits assumed): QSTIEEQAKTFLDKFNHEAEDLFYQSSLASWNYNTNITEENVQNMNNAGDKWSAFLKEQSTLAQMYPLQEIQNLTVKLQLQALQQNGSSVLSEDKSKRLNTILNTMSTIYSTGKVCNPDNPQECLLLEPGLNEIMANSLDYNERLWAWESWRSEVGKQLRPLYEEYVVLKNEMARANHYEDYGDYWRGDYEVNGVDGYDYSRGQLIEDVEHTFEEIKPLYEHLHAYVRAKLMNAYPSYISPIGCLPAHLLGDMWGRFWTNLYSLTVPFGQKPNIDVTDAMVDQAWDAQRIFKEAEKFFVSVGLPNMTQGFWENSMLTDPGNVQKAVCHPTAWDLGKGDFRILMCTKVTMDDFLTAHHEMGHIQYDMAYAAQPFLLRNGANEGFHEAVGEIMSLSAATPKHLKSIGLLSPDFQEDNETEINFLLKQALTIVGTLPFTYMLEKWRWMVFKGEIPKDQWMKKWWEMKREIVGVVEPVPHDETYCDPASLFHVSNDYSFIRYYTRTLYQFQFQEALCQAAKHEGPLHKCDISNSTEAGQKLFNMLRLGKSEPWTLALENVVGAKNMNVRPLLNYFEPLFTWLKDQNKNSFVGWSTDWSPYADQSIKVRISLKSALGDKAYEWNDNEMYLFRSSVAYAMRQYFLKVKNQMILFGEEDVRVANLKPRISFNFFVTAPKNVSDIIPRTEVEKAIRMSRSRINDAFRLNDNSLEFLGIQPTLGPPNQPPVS
TEST_PROTOCOL: ACE-2 Competitive Substrate Assay (ACS Assay)
Type: biochemical
DETAILS: Table 3, very good ACE-2 inhibiting compounds; species not given; read-out: ACE-2 Activity, Ki
pKi: −log10 of the molar value.
Documented pKi across a set of compounds
EXPERIMENTAL_ENDPOINT: pKi

COMPOUND: CC(C)C[C@H](N[C@@H](CC(=O)Nc1nc2ccc(F)cc2s1)C(=O)O)C(=O)O [MQ]
EXPERIMENTAL_ENDPOINT: pKi
OBS_VALUE: > 7.30

COMPOUND: CC(C)C[C@H](N[C@@H](Cc1cccc(OCc2cccc(Cl)c2)c1)C(=O)O)C(=O)O [OO]
EXPERIMENTAL_ENDPOINT: pKi
OBS_VALUE: 7.00 to 7.30

COMPOUND: CC(C)CC(N[C@@H](Cc1csc(-c2ccccc2)n1)C(=O)O)C(=O)O (stereo partly drawn) [IL]
EXPERIMENTAL_ENDPOINT: pKi
OBS_VALUE: 7.00 to 7.30
